- TARGET: T1, EsCas13d, nuclease-dead (Eubacterium siraeum, UniProt B0MS50, R295A;H300A;R849A;H854A)
- T1 sequence: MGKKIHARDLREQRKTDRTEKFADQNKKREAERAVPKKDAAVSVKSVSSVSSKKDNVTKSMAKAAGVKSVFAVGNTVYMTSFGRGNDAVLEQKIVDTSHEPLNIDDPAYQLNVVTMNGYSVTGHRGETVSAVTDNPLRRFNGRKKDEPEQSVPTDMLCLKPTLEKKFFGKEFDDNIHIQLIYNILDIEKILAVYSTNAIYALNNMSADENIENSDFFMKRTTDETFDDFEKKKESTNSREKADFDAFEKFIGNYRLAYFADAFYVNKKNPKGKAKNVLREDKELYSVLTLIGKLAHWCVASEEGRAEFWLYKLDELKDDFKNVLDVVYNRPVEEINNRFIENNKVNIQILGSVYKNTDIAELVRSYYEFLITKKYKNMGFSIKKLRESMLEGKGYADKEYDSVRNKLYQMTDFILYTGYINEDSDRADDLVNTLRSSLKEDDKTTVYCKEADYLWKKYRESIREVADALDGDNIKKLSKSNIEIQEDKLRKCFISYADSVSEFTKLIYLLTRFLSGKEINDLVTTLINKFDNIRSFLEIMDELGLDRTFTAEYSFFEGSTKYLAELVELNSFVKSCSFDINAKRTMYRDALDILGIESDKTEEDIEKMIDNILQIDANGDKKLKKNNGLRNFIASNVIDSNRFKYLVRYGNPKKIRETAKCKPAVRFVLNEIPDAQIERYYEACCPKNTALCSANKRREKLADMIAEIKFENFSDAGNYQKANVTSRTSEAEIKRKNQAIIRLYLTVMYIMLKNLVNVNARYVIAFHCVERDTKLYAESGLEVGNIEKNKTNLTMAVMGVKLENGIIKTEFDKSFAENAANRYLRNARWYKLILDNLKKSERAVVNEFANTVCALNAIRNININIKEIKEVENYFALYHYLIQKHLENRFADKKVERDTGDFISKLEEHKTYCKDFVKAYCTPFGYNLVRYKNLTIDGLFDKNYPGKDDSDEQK
- PROCEDURE_TEXT: crRNA (strand 1, pre-loaded); Mg2+; 40 mM Tris-HCl pH 7.5, 150 mM NaCl, 6 mM MgCl2, 1 mM DTT, 0.1% Tween-20, 0.2 mg/ml BSA; 25 C; 10 min per concentration, then washed
- RUN_CONDITIONS: tags: His6-TwinStrep-SUMO cleaved; N-terminal SNAP kept (SNAP-Surface 488); label: 3' end held by stalled T7 RNA polymerase
Measured Kd of individual entries
Answer shape: numeric part, then the unit.

The examples below pair each entry with its known result.
BINDER	Kd
target 1 A18C,C21U (mixed) RNA 1: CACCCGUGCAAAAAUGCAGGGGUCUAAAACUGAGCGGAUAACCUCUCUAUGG RNA 2: GGGAAUGGAUCCACAUCUACGAAUUCGUACUAUCGAGAGGUUAUCCGCUCACCGAGAUCGGAAGAGCACACGU	7.48 nM
target 1 insU 3' of 20,insC 3' of 11 (mixed) RNA 1: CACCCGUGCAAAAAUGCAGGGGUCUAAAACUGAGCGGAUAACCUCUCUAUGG RNA 2: GGGAAUGGAUCCACAUCUACGAAUUCGUACCAUUAGAGAGGUCUAUCCGCUCACCGAGAUCGGAAGAGCACACGU	62 nM
target 2 MT 5'PFS UCA 3'PFS ACC (mixed) RNA 1: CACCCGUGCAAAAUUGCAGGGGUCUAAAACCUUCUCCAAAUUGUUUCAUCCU RNA 2: GGGAAUGGAUCCACAUCUACGAAUUCUCAAGGAUGAAACAAUUUGGAGAAGACCAGAUCGGAAGAGCACACGU	13.6 nM

Proceeding to the next binder to report its Kd.
Q. // returns reported Kd for input target 3 A11G (mixed) RNA 1: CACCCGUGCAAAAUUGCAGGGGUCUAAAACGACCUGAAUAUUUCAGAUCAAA RNA 2: GGGAAUGGAUCCACAUCUACGAAUUCGUUUUUGAUCUGAAGUAUUCAGGUCUGCAGAUCGGAAGAGCACACGU
A. 57 nM

Values from paper PMC10786891
